- Tested System: HCV NS3/4A protease complex (Hepatitis C virus genotype 1a, UniProt P27958, C1454S/C1711G)
- Sequence (P27958 1027-1711, stated change not applied): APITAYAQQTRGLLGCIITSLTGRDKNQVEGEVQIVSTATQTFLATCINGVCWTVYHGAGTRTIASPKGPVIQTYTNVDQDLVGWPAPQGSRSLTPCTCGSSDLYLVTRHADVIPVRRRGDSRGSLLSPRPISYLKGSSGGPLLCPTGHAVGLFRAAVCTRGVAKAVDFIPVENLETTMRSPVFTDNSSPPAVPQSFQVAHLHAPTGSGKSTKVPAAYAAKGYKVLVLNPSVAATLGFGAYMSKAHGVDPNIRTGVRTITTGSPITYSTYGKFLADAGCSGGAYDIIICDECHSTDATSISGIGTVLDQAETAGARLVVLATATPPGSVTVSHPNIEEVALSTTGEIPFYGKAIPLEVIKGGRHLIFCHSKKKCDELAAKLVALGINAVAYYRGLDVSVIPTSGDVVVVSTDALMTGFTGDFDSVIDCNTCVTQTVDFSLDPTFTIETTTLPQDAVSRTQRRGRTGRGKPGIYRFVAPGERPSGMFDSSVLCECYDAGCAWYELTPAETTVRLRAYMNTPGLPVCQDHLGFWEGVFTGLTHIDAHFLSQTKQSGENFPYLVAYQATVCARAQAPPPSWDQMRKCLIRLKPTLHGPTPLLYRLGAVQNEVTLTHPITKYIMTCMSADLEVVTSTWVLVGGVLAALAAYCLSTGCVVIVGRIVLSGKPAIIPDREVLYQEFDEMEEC
- Sequence (P27958 1027-1711, stated change not applied): as above
- Assay Notes: Recombinant HCV NS3/4A protease complex FRET peptide assay (strain not stated)
- Assay type: biochemical
- Condition Details: IC50, NS3/4A protease enzyme assay, strain not stated; activity ranges
Assay Metric: IC50

Molecule	Assay Metric	Observed
C=CC1C[C@]1(NC(=O)[C@@H]1C[C@@H](Oc2cc(-c3ccccc3)nc3cc(OC)ccc23)CN1C(=O)[C@@H](NC(=O)OC(C)(C)C)C(C)CC)C(=O)NS(=O)(=O)C1CC1 (some centres unmarked)	IC50	< 500 nM

Q: Which IC50 is listed for C=CC1CC1(NC(=O)[C@@H]1C[C@@H](Oc2cc(-c3ccccc3)nc3cc(OC)ccc23)CN1C(=O)[C@H](CC1CCCCC1)NC(=O)OC(C)(C)C)C(=O)NS(=O)(=O)C1CC1 (some centres unmarked) ?
A: < 500 nM

Q: Consider next the molecule C=C[C@@H]1C[C@]1(NC(=O)C1C[C@@H](Oc2cc(-c3ccccc3)nc3cc(OC)ccc23)CN1C(=O)[C@@H](NC(=O)OCCCC)C(C)(C)C)C(=O)NS(=O)(=O)C1CC1 (some centres unmarked) in the same way.
A: < 50 nM

Q: Next molecule: CCC(C)[C@H](NC(=O)OC(C)(C)C)C(=O)N1C[C@H](Oc2cc(-c3ccccc3)nc3cc(OC)ccc23)C[C@H]1C(=O)NC1(C(=O)NS(=O)(=O)C2CC2)CC1 (some centres unmarked)
A: < 50 nM

Q: # iterate: C=CCC[C@](C)(NC(=O)[C@@H]1C[C@@H](Oc2cc(-c3ccccc3)nc3cc(OC)ccc23)CN1C(=O)C(NC(=O)OC(C)(C)C)C(C)(C)C)C(=O)NS(=O)(=O)c1ccc(Cl)cc1 (some centres unmarked)
A: < 50 nM

* * *

- Tested on: HCV replicon in Huh7 cells
- Assay Notes: HCV replicon cell-based assay
- Set-up: species or system HCV strain 1B
- Condition Details: Hepatitis C virus, Huh-7, 96 h; HCV replicon, Huh7 cells, 4 days; activity ranges; read-out: EC50
Assay Metric: EC50

Molecule	EC50
C=C1C[C@]1(NC(=O)[C@@H]1C[C@@H](Oc2cc(-c3ccccc3)nc3cc(OC)ccc23)CN1C(=O)C(NC(=O)OC(C)(C)C)C(C)(C)C)C(=O)NS(=O)(=O)c1cc(F)ccc1C (stereo partly shown)	< 0.5 µM
C=C[C@@H]1C[C@]1(NC(=O)C1C[C@@H](Oc2cc(-c3ccccc3)nc3cc(OC)ccc23)CN1C(=O)[C@@H](NC(=O)CC(C)(C)C)C(C)(C)C)C(=O)NS(=O)(=O)C1CC1 (stereo partly shown)	< 0.05 µM
C=CC1C[C@]1(NC(=O)[C@@H]1C[C@@H](Oc2cc(-c3ccccc3)nc3cc(OC)ccc23)CN1C(=O)[C@@H](NC(=O)OC(C)(C)C)C1CCCC1)C(=O)NS(=O)(=O)C1CCC1 (stereo partly shown)	< 0.5 µM
C=CC1C[C@]1(NC(=O)[C@@H]1C[C@@H](Oc2cc(-c3ccccc3)nc3cc(OC)ccc23)CN1C(=O)C(NC(=O)OC(C)(C)C)C(C)(C)C)C(=O)NS(=O)(=O)c1ccccc1C(=O)OC (stereo partly shown)	< 0.5 µM
CCCNC(=O)N[C@H](C(=O)N1C[C@H](Oc2cc(-c3ccccc3)nc3cc(OC)ccc23)C[C@H]1C(=O)N[C@]1(C(=O)NS(=O)(=O)C2CC2)CC1CC)C(C)C (stereo in doubt)	< 0.05 µM
C=CC1C[C@]1(NC(=O)[C@@H]1C[C@@H](Oc2cc(-c3ccccc3)nc3cc(OC)ccc23)CN1C(=O)[C@@H](NC(=O)OC(C)(C)C)C(C)(C)C)C(=O)NS(=O)(=O)CCC (stereo partly shown)	< 0.5 µM
COc1ccc2c(OC3C[C@@H](C(=O)NC4(C(=O)NS(=O)(=O)C5CC5)CC45CCC5)N(C(=O)[C@@H](NC(=O)OC(C)(C)C)C(C)(C)C)C3)cc(-c3ccccc3)nc2c1 (stereo partly shown)	< 5 µM
C=C[C@@H]1C[C@]1(NC(=O)C1C[C@@H](Oc2cc(-c3ccccc3)nc3cc(OC)ccc23)CN1C(=O)[C@@H](NC(=O)C1(O)CC1)C(C)(C)C)C(=O)NS(=O)(=O)C1CC1 (stereo partly shown)	< 5 µM
C=CC1C[C@]1(NC(=O)[C@@H]1C[C@@H](Oc2cc(-c3ccccc3)nc3cc(OC)ccc23)CN1C(=O)[C@@H](NC(=O)OC(C)(C)C)C(C)(C)C)C(=O)NS(=O)(=O)c1ccc([N+](=O)[O-])cc1 (stereo partly shown)	< 0.5 µM
C=C[C@@H]1C[C@]1(NC(=O)C1C[C@@H](Oc2cc(-c3ccccc3)nc3cc(OC)ccc23)CN1C(=O)[C@@H](NC(=O)C(F)(F)F)C(C)(C)C)C(=O)NS(=O)(=O)C1CC1 (stereo partly shown)	< 0.5 µM

Q: I would be grateful if you could share the reported EC50 for C#CCOC(=O)N[C@H](C(=O)N1C[C@H](Oc2cc(-c3ccccc3)nc3cc(OC)ccc23)CC1C(=O)N[C@]1(C(=O)NS(=O)(=O)C2CC2)C[C@H]1C=C)C(C)(C)C (stereo partly shown) .
A: < 0.05 µM

Q: Moving on to C=CC1C[C@]1(NC(=O)[C@@H]1C[C@@H](Oc2cc(-c3ccccc3)nc3cc(OC)ccc23)CN1C(=O)[C@@H](NC(=O)OC(C)(C)C)C(C)C)C(=O)NS(=O)(=O)C1CCC1 (stereo partly shown)
A: < 0.05 µM

Q: Next molecule up: C=C1C[C@]1(NC(=O)[C@@H]1C[C@@H](Oc2cc(-c3ccccc3)nc3cc(OC)ccc23)CN1C(=O)C(NC(=O)OC(C)(C)C)C(C)(C)C)C(=O)NS(=O)(=O)c1ccccc1F (stereo partly shown)
A: < 0.5 µM

FYI, the data here is from patent US6872805B2.
